# TARGET_OR_TEST_SYSTEM: Neuropeptide Y receptor type 5 (Homo sapiens, UniProt Q15761)
# Sequence (Q15761 whole entry): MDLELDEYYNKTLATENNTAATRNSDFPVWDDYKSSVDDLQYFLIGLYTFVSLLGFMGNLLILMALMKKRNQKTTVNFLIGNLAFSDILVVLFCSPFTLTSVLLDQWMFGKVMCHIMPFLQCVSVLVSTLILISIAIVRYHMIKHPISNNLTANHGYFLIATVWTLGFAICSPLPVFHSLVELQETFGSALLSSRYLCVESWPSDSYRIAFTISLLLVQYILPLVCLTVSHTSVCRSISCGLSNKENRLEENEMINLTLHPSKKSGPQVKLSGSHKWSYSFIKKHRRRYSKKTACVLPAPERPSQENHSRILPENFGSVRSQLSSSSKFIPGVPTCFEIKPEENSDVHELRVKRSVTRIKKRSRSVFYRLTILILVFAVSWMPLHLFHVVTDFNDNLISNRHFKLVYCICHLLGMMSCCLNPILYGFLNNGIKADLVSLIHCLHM
# PROTOCOL: Displacement of [125I]PYY from human recombinant neuropeptide Y5 receptor expressed in thymidine kinase deficient […] cells
MEASURED_PROPERTY: Ki

Ki recorded for this compound, COc1cccc2c1C(C1C(=O)CC(C)(C)CC1=O)C1=C(CC(C)(C)CC1=O)O2 (stereo unspecified) , is > 1000 nM
